experiment: soluble on expression in E. coli; label from the status in PepcDB or PDB records
value.type: soluble on expression in E. coli

1. MGSDKIHHHHHHMDEIEKSLQNWGQQLENVHLPRWHELPDIELYMDQVITLIEKYLSPLITLEKHTLLTSSMVNNYVKHGLIPAPVKKRYNQKHLAFLIAITLLKQVLTLPEIKQGILFQGATVGIREAYNLFCQEQERAIYVIAAQAQEKEVQAKSQEPMGIEYLAVKAATMSFATKMFSEKVIELEQEYLKEMDEMTHE ... not soluble
2. MFQIGEALMGQGSELAHVDLMIGDKGGPVGQAFANGLTQLSAGHTPLLSVIRPNLPPKPSTLIIPKVTVKNMDQAARIFGPAQSAVAKAVADSVEEGVIPKDQVEDLVIVASVFIHPEAQDYNKIYRYNYGATKLAIKRALEGFPDIDTVLEESNKSTHAIMGFKVTRLWDPPYLQIAFDNPNLEFVLSAISEIPKSDHVIIEAGTPLIKRYGTDVISKIRQVRPDAFIVADLKTLDTGNLEARMVADAAGDAIVVSALAPISTIDKLIEEAHKTGIYAVMDTLNQQDPISVLKQLKVMPDVIELHRGIDIEGTEHAWGNIGEIKKIAPKALVAVAGGVRLDKVPVALSQGADILVVGRAITNAKDVREMAEQFINSLNKPEIDQFRVMTDF ... not soluble
3. MLVRKVCQNFFQNALAPFHKYRQSALMDATVALINGASLTLTSIGRFLPGQAQVKNKIKRVDRLLGNESLHRDIPLIFNNIIAMLTRKLSLCVVAVDWSGYHSHEYHILRASLICDGRSIPLLSQIVPSAEQQSEQIHKTFLNALARAVNPDARVILEHHHHHH ... not soluble
4. MSKKIKVGIVGATGYTGVELLRLLAAHPDVEVAAVTSRSEAGTAVADYFPSLRGVYGLAFQTPDEAGLEQCDIVFFATPNGIAMKDAPRLIEQGVRVIDLSADFRIRDIPTWEHWYGMTHAAPDLVSQAVYGLSELNREAVAQARLVANPGCYPTCVSLPLVPLLRQCRLKPGMPLIADCKSGVSGAGRKGNVGSLLCEAGDNFKAYGIAGHRHLPEIRQTIAGLQDGIAEGFVFTPHLAPMIRGMHATVYLHLSDGSDPETVLRDYYRDSPFVDILPTGSAPETRSVRGANLCRISIQQAAQSDVWVVLSVIDNLVKGAAGQAVQNMNIMFGLEETHGLDAIPLLP ... not soluble
5. MHITNRSHLADRYGKRTSAEFLLHERPILSFPISLAAIPKEARYLSWELIDYDTIPLIGFPFIHWLAANVPVTNEIPEDFSRTALKPTIQGKNSLASPLGKQMIPALATETLPELTERYLGLSPRSGVHTYTLYVYTTKNPLNLKEGFFANELHQALNDQLLAKAKFEFLY ... not soluble
